Each entry below carries its recorded pEC50.
Assayed target: hTLR8 (Homo sapiens)
Construct: host or cells: HEK-Blue hTLR8 (HEK293-derived reporter cells with SEAP read-out)
Sequence (Q9NR97 27-1041): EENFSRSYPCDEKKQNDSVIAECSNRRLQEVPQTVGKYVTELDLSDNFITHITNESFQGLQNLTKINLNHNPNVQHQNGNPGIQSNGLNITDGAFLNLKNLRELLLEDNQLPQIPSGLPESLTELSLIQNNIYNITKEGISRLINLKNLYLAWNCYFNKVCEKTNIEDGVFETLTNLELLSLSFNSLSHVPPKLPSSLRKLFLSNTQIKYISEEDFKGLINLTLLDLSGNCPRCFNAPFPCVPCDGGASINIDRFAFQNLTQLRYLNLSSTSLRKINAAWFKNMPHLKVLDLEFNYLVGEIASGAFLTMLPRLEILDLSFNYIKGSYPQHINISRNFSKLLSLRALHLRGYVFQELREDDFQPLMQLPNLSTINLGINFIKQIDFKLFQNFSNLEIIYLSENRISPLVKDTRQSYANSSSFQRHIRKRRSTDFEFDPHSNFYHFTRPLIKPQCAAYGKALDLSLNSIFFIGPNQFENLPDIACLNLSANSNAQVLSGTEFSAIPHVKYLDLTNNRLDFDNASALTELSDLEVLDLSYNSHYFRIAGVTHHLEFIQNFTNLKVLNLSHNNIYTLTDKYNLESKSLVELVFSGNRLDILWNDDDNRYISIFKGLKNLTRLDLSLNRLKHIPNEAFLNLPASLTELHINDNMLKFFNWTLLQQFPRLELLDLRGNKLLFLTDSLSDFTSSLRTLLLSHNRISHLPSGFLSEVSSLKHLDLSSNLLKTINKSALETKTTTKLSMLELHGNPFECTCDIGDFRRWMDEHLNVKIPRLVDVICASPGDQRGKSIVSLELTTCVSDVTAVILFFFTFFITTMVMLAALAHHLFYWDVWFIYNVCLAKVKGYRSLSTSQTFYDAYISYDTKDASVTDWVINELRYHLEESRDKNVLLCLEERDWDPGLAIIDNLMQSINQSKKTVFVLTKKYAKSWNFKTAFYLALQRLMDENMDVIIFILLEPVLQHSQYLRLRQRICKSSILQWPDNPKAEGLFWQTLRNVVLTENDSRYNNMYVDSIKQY
Protocol description: EC50 assay for small molecule agonists, HEK-Blue hTLR8 cells, SEAP readout
Assay type: cell-based
Experimental conditions: agonist activity, read-out: hTLR8(EC50)
pEC50: −log10 of the molar value.

# Compound, Assayed target, pEC50
data = [
    ("CCCCCc1cc(Cc2ccc(C(=O)N3CCN(C)CC3)cc2)c(C)nc1N [Compound N41]", "hTLR8 (Homo sapiens)", "< 5.40"),
    ("CCCCCc1cc(Cc2ccc(CN(C)CCOCCOCCC(F)(F)P(=O)(O)O)cc2)c(C)nc1N [Compound N26]", "hTLR8 (Homo sapiens)", "< 5.40"),
]

Request: Please report the recorded pEC50 for CCCCCc1cc(Cc2ccc(CN3CCOCC3)cc2O)c(C)nc1N [Compound N48] .
Result: < 5.40
